The measurements presented in this section are drawn from paper PMC9728165.

Substrate: O=C(O)C(=O)Cc1ccccc1
Assay name: purified protein
Format: biochemical, Halalkalibacterium halodurans
Measurement conditions: reductive amination, 500 mM ammonia, 100 microM NADH, glycine-KCl-KOH pH 10.4, 25°C
Measure name: Km (mM)
One number for each entry, in mM.

Indicate its recorded Km; the protein in question is PheDH (Halalkalibacterium halodurans C-125; E113D/N276L) (protein) MLTKTPTVTSTLDIFTEMAEHEQVLFCHDPSSGLRAIIAIHDTTLGPALGGCRMYPYQTTEDALRDVLRLSKGMTQKCAAADVDFGGGKAVIIGDPAKDKSANLFRAFGQFVDSLNGRFYTGTDMGTTMEDFVHALKETNGIVGIPKEYGGSGDSSVPTAKGVINSLKAISQVVLKDKQFSGRTYAIQGLGKVGFKVAEELLKEGNDLYVSDLQESLPLRLQQLGQRLGRHVEILHGDEIYEAAADVFVPCAQGAILNDATIARLKVKAIAGAANLQLEAERHGQMLHDQGIWFAPDYIVNSGGLIQVADELYGSNEKRVLSKTNAIYDTILEIFHQAERHHITTLQAANQLCERRIRERARRNNFFVNRIRPKWNLRK 0.812
